target_under_test: cPLA2 (Homo sapiens, UniProt P47712)
Sequence (P47712 1-749): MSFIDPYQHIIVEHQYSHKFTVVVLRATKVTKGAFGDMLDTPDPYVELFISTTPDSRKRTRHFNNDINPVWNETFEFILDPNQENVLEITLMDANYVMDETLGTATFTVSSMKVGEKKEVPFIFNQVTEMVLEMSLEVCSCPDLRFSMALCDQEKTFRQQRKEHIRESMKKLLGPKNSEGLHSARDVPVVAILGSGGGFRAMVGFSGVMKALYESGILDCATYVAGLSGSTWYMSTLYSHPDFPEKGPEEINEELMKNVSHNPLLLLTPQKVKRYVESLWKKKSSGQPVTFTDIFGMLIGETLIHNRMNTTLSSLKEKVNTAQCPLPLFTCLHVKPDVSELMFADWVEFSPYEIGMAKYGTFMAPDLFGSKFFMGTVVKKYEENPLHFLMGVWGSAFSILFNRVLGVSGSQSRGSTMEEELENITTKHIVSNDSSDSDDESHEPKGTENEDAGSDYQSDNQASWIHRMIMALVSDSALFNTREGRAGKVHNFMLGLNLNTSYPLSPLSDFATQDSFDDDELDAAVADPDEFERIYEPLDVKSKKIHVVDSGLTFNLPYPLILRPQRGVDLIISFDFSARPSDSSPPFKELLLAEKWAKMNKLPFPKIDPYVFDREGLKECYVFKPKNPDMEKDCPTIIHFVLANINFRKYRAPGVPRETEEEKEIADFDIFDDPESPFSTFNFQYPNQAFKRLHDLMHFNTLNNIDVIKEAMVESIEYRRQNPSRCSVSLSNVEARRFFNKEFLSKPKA
measured_endpoint: IC50 (nM)

chemical_string: O=C1NC(=S)S/C1=C\c1ccc(C(=O)NC[C@@H]2C[C@@H](SCc3ccccc3-c3ccccc3)CN2C(=O)c2ccccc2C(=O)c2ccc(F)cc2)s1
target_under_test: cPLA2 (Homo sapiens, UniProt P47712)
IC50 / nM: 33

1 = COc1cccc(-c2ccccc2OC(C)C)c1O[C@@H]1C[C@@H](CNC(=O)c2ccc(/C=C3\SC(=O)NC3=O)cc2)N(C(=O)c2ccccc2C(=O)c2ccc(F)cc2)C1
2 = O=C1NC(=S)S/C1=C\c1ccc(NC(=O)[C@@H]2C[C@@H](SCc3ccccc3-c3ccccc3)CN2C(=O)c2ccccc2C(=O)c2ccc(F)cc2)s1
Form field 'greater IC50' accepts 1 or 2 ; which applies? Answer = label.
2

###

target_under_test: cPLA2 (Homo sapiens, UniProt P47712)
pIC50: −log10 of the molar value.
measured_endpoint: pIC50

Guide cases for pIC50, answers given:
chemical_string: O=C1NC(=O)/C(=C/c2ccc(C(=O)NC[C@@H]3C[C@@H](OCc4ccccc4-c4ccccc4)CN3C(=O)CCC(=O)c3ccc(F)cc3)cc2)S1
reported_value: 5.32
--
chemical_string: O=C1NC(=O)/C(=C/c2ccc(C(=O)NC[C@@H]3C[C@@H](Cc4ccccc4-c4ccccc4)CN3C(=O)c3ccccc3C(=O)c3ccc(F)cc3)cc2)S1
reported_value: 6.70
--
chemical_string: CN(Cc1ccccc1-c1ccccc1)[C@@H]1C[C@@H](CNC(=O)c2ccc(/C=C3\SC(=O)NC3=O)cc2)N(C(=O)c2ccccc2C(=O)c2ccc(F)cc2)C1
reported_value: 6.85

1 = O=C1NC(=O)/C(=C/c2ccc(C(=O)NC[C@@H]3C[C@@H](Oc4ccccc4-c4cccnc4)CN3C(=O)c3ccccc3C(=O)c3ccc(F)cc3)cc2)S1
2 = O=C1NC(=S)S/C1=C\c1ccc(CC[C@@H]2C[C@@H](OCc3ccccc3-c3ccccc3)CN2C(=O)c2ccccc2C(=O)c2ccc(F)cc2)cc1
3 = O=C1NC(=O)/C(=C/c2ccc(C(=O)NC[C@@H]3C[C@@H](OCc4ccccc4Br)CN3C(=O)c3ccccc3C(=O)c3ccc(F)cc3)cc2)S1
Put the items in sequence by pIC50, from largest down. Please reply with the labels ordered as requested. Many thanks.
3, 1, 2
(3: 7.23, 1: 6.82, 2: 5.96)
